assayTarget: UHRF1 SRA SUVH5 finger swap (/ A. thaliana finger loop) (UniProt Q96T88)
Sequence (Q96T88 whole entry): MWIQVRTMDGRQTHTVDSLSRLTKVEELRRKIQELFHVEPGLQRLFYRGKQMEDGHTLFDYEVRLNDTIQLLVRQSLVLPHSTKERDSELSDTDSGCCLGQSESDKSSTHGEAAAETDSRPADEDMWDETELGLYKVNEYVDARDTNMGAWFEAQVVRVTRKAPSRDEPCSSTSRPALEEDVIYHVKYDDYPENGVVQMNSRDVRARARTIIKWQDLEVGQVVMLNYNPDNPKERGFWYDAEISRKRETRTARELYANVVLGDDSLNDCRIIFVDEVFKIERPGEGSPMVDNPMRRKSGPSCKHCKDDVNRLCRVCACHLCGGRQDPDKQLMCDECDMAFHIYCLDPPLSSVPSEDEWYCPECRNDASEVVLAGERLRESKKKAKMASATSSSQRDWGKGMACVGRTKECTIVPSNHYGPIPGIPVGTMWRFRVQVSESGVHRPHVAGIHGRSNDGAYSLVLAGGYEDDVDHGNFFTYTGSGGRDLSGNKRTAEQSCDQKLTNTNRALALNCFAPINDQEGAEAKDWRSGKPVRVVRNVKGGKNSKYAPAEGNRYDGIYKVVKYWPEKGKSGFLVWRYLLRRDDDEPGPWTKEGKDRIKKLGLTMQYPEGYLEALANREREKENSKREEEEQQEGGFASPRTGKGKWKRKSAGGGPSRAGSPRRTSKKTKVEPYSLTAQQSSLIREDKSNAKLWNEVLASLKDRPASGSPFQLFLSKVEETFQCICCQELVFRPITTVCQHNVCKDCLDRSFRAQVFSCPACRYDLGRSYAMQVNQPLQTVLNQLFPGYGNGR
assay: fluorescence polarization
protocolConditions: 5mC at position 6 of strand 1 and position 6 of strand 2, FP: 25 mM HEPES pH 7.5, 100 mM NaCl, 0.05% NP-40, 10 nM FAM-DNA (temperature not stated), ITC: 25 mM HEPES, 1 mM DTT, 25 C
experimentalReadout: Kd

Kd in this record for CCATGCGCTGAC (double strand) [Sy5mC] : 200 nM

* * *

assayTarget: UHRF1 SRA SUVH5 finger swap (/ A. thaliana finger loop) (UniProt Q96T88)
assay: fluorescence polarization
protocolConditions: 5mC at position 6 of strand 1, FP: 25 mM HEPES pH 7.5, 100 mM NaCl, 0.05% NP-40, 10 nM FAM-DNA (temperature not stated), ITC: 25 mM HEPES, 1 mM DTT, 25 C
experimentalReadout: pKd
Scale note: pKd = -log10(concentration in M).

Item: CCATGCGCTGAC (double strand) [He5mC (FAM)] | System: UHRF1 SRA SUVH5 finger swap (/ A. thaliana finger loop) (UniProt Q96T88) | pKd: 6.70
